assayed.system: T1, human native VWF (human, UniProt P04275 764-2813)
T1 construct: Multimeric glycoprotein; also called native VWF protein; native VWF (305 kDa)
test.protocol: SPR, Biacore 8K, antibody captured on Protein A, native VWF as analyte (4.4-50 nM), single-cycle kinetics, 1:1 fit; replicate 1
quantity.kind: pKd
Here pKd is given on a logarithmic scale as minus log10 of the concentration in mol/L.

4-H3 (antibody, human IgG1, V domains shown, Rabbit-derived variable domains expressed as human IgG1; also called clone 4-H3) VH: QSLEESGGRLVPPGTPLTLTCTVSGIDLTSNAMNWVRQAPGKGLEWIGGIYGHDTSYYAAWAKGRFTISRTSTTVDLKMTRPTTDDTATYFCARGFIYFDIWGTGTLVTISS VL: AYDMTQTPPSLSASVGETVRIRCLASEDIASGISWYQQKPGKPPTLLIYGASNLESGVPPRFSGSGSGTDYTLTIGGVQAEDAATYYCLGGYSFSSNGLTFGAGTKVEIK yielded pKd of 9.91
